- System: T1, human CCR8 (human, UniProt P51685 1-355)
- T1 construct: whole, on cells; also called hCCR8
- T1 sequence (P51685 whole entry): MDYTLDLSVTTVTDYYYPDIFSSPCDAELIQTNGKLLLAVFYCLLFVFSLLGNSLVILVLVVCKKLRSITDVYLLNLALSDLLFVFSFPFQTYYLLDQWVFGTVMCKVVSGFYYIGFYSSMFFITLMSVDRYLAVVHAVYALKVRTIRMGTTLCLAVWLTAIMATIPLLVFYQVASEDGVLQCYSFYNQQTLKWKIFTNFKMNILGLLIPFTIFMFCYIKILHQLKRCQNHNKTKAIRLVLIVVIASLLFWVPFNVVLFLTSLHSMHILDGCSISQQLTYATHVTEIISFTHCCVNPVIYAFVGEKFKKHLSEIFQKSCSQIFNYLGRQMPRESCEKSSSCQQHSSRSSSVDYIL
- Procedure summary: FACS, competition with AF647-human CCL1 on CHO-K1-human CCR8 cells
Parameter measured: IC50

Entry 149F2C10_N28I (antibody, V domains shown, NG site removed variant of 149F2C10) VH: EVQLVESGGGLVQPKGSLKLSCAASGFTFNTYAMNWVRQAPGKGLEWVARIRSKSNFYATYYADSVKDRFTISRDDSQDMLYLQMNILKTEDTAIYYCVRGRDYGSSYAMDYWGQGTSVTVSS VL: DIVMTQAAPSVPVTPGESVSISCRSSKSLLHSIGNTYLYWFLQRPGQSPQLLIYRMSNLASGVPDRFSGSGSGTAFTLRISRVEAEDVGVYYCMQHLEYPLTFGAGTKLELK needs its IC50 filled in; supply it. 2.25 nM

Entry 149F2C10_G29A (antibody, V domains shown, NG site removed variant of 149F2C10) VH: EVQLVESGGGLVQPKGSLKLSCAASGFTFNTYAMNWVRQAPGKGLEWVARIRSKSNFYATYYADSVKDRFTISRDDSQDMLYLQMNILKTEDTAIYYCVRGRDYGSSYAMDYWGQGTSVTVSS VL: DIVMTQAAPSVPVTPGESVSISCRSSKSLLHSNANTYLYWFLQRPGQSPQLLIYRMSNLASGVPDRFSGSGSGTAFTLRISRVEAEDVGVYYCMQHLEYPLTFGAGTKLELK needs its IC50 filled in; supply it. 0.725 nM

Entry 149F2C10_G29I (antibody, V domains shown, NG site removed variant of 149F2C10) VH: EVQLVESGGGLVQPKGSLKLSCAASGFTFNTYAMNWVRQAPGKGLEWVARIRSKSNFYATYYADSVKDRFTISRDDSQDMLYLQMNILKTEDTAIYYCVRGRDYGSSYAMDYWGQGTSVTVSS VL: DIVMTQAAPSVPVTPGESVSISCRSSKSLLHSNINTYLYWFLQRPGQSPQLLIYRMSNLASGVPDRFSGSGSGTAFTLRISRVEAEDVGVYYCMQHLEYPLTFGAGTKLELK needs its IC50 filled in; supply it. 1.09 nM

Entry 149F2C10-CHO (antibody, V domains shown, The suffix -CHO is not explained) VH: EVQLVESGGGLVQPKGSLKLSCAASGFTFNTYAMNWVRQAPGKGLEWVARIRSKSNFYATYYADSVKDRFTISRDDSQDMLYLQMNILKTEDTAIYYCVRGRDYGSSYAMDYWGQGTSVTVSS VL: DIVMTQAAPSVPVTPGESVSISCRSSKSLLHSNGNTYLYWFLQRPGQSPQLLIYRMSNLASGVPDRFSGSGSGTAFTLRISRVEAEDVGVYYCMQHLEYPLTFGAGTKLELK needs its IC50 filled in; supply it. 0.934 nM

Entry 149F2C10_G29V (antibody, V domains shown, NG site removed variant of 149F2C10) VH: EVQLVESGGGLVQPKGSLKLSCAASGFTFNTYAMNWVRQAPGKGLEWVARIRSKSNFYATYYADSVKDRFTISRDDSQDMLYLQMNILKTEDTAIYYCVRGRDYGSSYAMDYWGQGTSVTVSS VL: DIVMTQAAPSVPVTPGESVSISCRSSKSLLHSNVNTYLYWFLQRPGQSPQLLIYRMSNLASGVPDRFSGSGSGTAFTLRISRVEAEDVGVYYCMQHLEYPLTFGAGTKLELK needs its IC50 filled in; supply it. 1.04 nM

Entry 149F2C10_N28S (antibody, V domains shown, NG site removed variant of 149F2C10) VH: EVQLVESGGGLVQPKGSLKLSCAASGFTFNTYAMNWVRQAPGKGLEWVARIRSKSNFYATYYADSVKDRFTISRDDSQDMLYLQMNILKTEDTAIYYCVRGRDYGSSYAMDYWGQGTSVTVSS VL: DIVMTQAAPSVPVTPGESVSISCRSSKSLLHSSGNTYLYWFLQRPGQSPQLLIYRMSNLASGVPDRFSGSGSGTAFTLRISRVEAEDVGVYYCMQHLEYPLTFGAGTKLELK needs its IC50 filled in; supply it. 15 nM

Entry 149F2C10_N28Q (antibody, V domains shown, NG site removed variant of 149F2C10; detected with anti-mouse IgG) VH: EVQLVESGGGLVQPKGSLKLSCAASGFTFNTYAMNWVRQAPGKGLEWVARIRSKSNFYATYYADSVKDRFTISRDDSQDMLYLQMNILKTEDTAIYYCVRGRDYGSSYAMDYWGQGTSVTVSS VL: DIVMTQAAPSVPVTPGESVSISCRSSKSLLHSQGNTYLYWFLQRPGQSPQLLIYRMSNLASGVPDRFSGSGSGTAFTLRISRVEAEDVGVYYCMQHLEYPLTFGAGTKLELK needs its IC50 filled in; supply it. 3.07 nM

Entry 149F2C10 (antibody, V domains shown, purified murine hybridoma antibody) VH: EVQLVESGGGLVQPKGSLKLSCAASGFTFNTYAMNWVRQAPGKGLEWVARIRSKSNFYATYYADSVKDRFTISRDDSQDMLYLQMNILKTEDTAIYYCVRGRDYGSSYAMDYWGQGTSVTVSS VL: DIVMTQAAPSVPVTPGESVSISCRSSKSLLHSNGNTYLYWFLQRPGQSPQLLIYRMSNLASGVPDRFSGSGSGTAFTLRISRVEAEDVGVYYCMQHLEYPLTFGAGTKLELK needs its IC50 filled in; supply it. 0.97 nM

Taken from patent US20250034266A1.
